Experimental system: SIK3 (Homo sapiens (Human))
Sequence (Q9Y2K2 whole entry): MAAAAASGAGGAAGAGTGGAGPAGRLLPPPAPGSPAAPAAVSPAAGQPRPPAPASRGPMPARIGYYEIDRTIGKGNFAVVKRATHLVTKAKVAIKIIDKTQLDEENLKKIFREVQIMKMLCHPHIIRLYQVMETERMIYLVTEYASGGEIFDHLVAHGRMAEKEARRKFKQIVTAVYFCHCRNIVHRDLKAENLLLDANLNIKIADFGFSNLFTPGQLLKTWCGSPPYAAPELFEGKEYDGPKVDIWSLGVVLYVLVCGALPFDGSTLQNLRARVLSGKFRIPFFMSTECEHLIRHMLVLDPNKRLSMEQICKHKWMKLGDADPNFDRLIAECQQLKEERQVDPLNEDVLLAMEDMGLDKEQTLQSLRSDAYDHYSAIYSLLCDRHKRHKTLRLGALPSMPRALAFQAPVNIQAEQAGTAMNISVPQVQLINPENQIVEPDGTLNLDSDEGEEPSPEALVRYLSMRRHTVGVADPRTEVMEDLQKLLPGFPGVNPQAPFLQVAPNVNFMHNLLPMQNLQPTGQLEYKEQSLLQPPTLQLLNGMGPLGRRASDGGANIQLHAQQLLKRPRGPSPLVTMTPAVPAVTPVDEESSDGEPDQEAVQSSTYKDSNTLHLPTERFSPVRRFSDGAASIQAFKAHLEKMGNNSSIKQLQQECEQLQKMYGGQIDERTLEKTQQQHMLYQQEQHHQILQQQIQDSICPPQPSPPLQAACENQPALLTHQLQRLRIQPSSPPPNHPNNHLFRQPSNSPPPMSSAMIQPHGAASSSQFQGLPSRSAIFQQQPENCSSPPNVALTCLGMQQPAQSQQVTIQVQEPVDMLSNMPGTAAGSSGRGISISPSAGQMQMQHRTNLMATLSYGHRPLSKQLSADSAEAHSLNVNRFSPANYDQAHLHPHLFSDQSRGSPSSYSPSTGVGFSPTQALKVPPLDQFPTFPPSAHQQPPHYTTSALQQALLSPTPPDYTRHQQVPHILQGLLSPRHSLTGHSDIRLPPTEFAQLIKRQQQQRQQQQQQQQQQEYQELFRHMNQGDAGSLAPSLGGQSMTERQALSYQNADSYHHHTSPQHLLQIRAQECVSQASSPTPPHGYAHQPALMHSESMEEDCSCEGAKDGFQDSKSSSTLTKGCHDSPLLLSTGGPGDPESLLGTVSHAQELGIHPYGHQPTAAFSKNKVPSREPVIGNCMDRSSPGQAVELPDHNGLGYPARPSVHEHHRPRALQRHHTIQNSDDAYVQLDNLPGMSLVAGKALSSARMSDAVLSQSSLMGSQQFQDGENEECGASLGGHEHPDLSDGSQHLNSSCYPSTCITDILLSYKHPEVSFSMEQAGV
Experiment summary: In vitro SIK3 kinase assay
Assay type: biochemical
Label y when IC50 is strictly below 50 nM; at or above that, label n.

Request: Bench note: check whether `CCc1nnc(-c2c(OC)cc(-c3cnc4cc(OCC5(C)COC5)ccn34)cc2OC)o1` shows IC50 below 50 nM
Response: n

Request: Bench note: check whether `N#Cc1ccc(-c2cnn3cc(C(=O)NCc4nc5cccnc5[nH]4)ccc23)cc1` shows IC50 below 50 nM
Response: n

Request: Bench note: check whether `COc1cc(-c2cnc3cc(-c4cnn(C)c4)ccn23)cc(OC)c1-c1nnc(C2CC2)o1` shows IC50 below 50 nM
Response: y

Request: Bench note: check whether `N#Cc1ccc(-n2cnc3cc(C(=O)NCc4cn5ccccc5n4)ccc32)cc1` shows IC50 below 50 nM
Response: n

Request: Bench note: check whether `COc1ccc(OC)c(-c2cnc3cc(C(=O)NCc4cccnc4)ccn23)c1` shows IC50 below 50 nM
Response: n

Request: Bench note: check whether `CCc1nnc(-c2c(OC)cc(-c3cnn4cc(-c5cnn(C6CC6)c5)ccc34)cc2OC)o1` shows IC50 below 50 nM
Response: y

Request: Bench note: check whether `CCc1nnc(-c2c(OC)cc(-c3cnc4cc(-c5cnn(C6CC6)c5)ccn34)cc2OC)o1` shows IC50 below 50 nM
Response: y

Request: Bench note: check whether `CCn1cc(-c2ccc3c(-c4ccc(C#N)cc4)cnn3c2)cn1` shows IC50 below 50 nM
Response: y

Request: Bench note: check whether `N#Cc1ccc(-c2cnc3cc(C(=O)NCc4cn5ccccc5n4)ccn23)cc1` shows IC50 below 50 nM
Response: n

Request: Bench note: check whether `N#Cc1ccc(-c2cnc3cc(-c4cnn(C5CC5)c4)ccn23)cc1` shows IC50 below 50 nM
Response: y

Request: Bench note: check whether `N#Cc1ccc(-c2cnn3cc(C(=O)NCc4cccnc4)ccc23)cc1` shows IC50 below 50 nM
Response: n

Request: Bench note: check whether `COCCN1CCC12CCN(c1cccc3ccc(-n4cnc5cc(OCC6(C)COC6)ccc54)nc13)CC2` shows IC50 below 50 nM
Response: y

Request: Bench note: check whether `N#Cc1ccc(-c2cnc3cc(C(=O)NCc4nc5ccncc5[nH]4)ccn23)cc1` shows IC50 below 50 nM
Response: n

Request: Bench note: check whether `CCn1cc(-c2ccn3c(-c4ccc(C#N)c(C)c4)cnc3c2)cn1` shows IC50 below 50 nM
Response: y

Request: Bench note: check whether CC1(COc2ccc3c(c2)ncn3-c2ccc3cccc(C4CCNC4)c3n2)COC1 (centres unmarked) shows IC50 below 50 nM
Response: y

Request: Bench note: check whether `CN(Cc1nc2ccccc2n1C)C(=O)c1ccn2c(-c3ccc(C#N)cc3)cnc2c1` shows IC50 below 50 nM
Response: n

Request: Bench note: check whether CC1(COc2ccc3c(c2)ncn3-c2ccc3cccc(N4CCCC4CN)c3n2)COC1 (centres unmarked) shows IC50 below 50 nM
Response: y

Request: Bench note: check whether `CN1CCOCC12CCN(c1cccc3ccc(-n4cnc5cc(OCC6(C)COC6)ccc54)nc13)CC2` shows IC50 below 50 nM
Response: y

Request: Bench note: check whether `CCc1nnc(-c2c(OC)cc(-c3cnc4cc(OCc5ccc(C)nc5)ccn34)cc2OC)o1` shows IC50 below 50 nM
Response: y

Request: Bench note: check whether `N#Cc1ccc(-c2cnc3cc(C(=O)NCc4nc5ccccc5[nH]4)ccn23)cc1` shows IC50 below 50 nM
Response: n

Request: Bench note: check whether `Cc1ccc(CCOc2ccn3c(-c4ccc(C#N)cc4)cnc3c2)cn1` shows IC50 below 50 nM
Response: y

Request: Bench note: check whether CN1CCC(c2cccc3ccc(-n4cnc5cc(OCC6(C)COC6)ccc54)nc23)C1 (centres unmarked) shows IC50 below 50 nM
Response: y

Request: Bench note: check whether `CCc1nnc(-c2ccc(-c3cnc4cc(-c5cnn(C)c5)ccn34)cc2OC)o1` shows IC50 below 50 nM
Response: y
